- assayExplanation: qHTS Validation assay for Inhibitors of Plasmodium falciparum Dd2 growth in vitro; note: nearly all actives have a fitted effect of over 70% in size
- experimentalContext: P. falciparum Dd2 in RBCs, SYBR Green growth, 72 h; series mostly up to 28.7 µM
Hit rate of the full screen: of about 4,100 compounds, about 1,600 (39%) were called active. Inconclusive results (about 25%) are left out. Calls come from the whole dose curve; as a rule, active = well fitted inhibition curve with a large enough effect; inconclusive = small, poorly fitted or top-dose-only effect; inactive = no such curve, though single readings can be large or run the other way. This is one part of the list.
In this exercise, the only acceptable responses are active, inactive

Observe how each entry below is paired with its result.
compound: N#Cc1cc(C#N)c(N2CCN(c3cccc(Cl)n3)CC2)nc1N
groupLabel: active

compound: COC(C)c1ccc(-c2cc(C(=O)O)cc(S(=O)(=O)NC(C)C)c2)cc1 (stereo not drawn)
groupLabel: inactive

Now for a further compound.
Inquiry: Outcome logged for CC(C)(C)CC(C)(C)c1ccc(O)c(CN2CCN(CCC#N)CC2)c1 in this assay:
Reply text: active
